// data source = patent US20230416363A1

measurement target: T1, hPD-1-Fc (human, UniProt Q15116 25-167)
T1 construct: domain: IgV domain; also called human PD-1-Fc; not shown: human IgG1 Fc
T1 sequence (Q15116 25-167 limits assumed): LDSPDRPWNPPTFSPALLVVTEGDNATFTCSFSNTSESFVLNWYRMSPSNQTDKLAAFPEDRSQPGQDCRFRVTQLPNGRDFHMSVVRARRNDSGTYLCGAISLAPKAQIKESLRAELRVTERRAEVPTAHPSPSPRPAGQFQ
assay details: blocking ELISA, hPD-1-Fc to hPD-L1-Fc
metric: pIC50
Value format note: pIC50 is -log10 of concentration (mol/L); just state the number.

Query: # input binder: 19B6 (antibody, V domains shown) VH: QVQLVQSGAEVKKPGASVKVSCKASGYTFTGYYMHWVRQAPGQGLEWMGIINPSGGSTSYAQKFQGRVTMTRDTSTSTVYMELSSLRSEDTAVYYCAKTAGYDWLPSGLGMDVWGQGTTVTVSS VL: DIQMTQSPSSLSASVGDRVTITCRASQSINSWLAWYQQKPGKAPKLLIYYASSLQSGVPSRFSGSGSGTDFTLTISSLQPEDFATYYCQQGYSVPLSFGQGTKLEIK ; wanted: its pIC50
Reply: 8.57
